Sourced from ChEMBL document CHEMBL4483862

test system: Plasmodium berghei; experiment: Luciferase/luciferin-expressing antifolate-resistant parasites were used to infect a culture of HepG2 cells that were pre-incubated with compounds. Infected hepatocytes emit light due to the luciferase reaction. Assay results are presented as the percent inhibition of light emission compared to control. […]; type: functional; settings: sporozoite, read-out: LUCIFERASE INFECTION ASSAY - IC50
pIC50: −log10 of the molar value.
readout.type: pIC50

Please review the entries below; each comes with its answer.
>  <compound>
Cc1nnc(-c2cccc(NC(=O)c3ccc4c(c3)CCO4)c2)[nH]1

>  <subject.of.test>
Plasmodium berghei

>  <pIC50>
< 5.00

$$$$
>  <compound>
CCCCCCCCNC(=O)/C(C#N)=C/c1ccc(C)cc1C

>  <subject.of.test>
Plasmodium berghei

>  <pIC50>
< 5.00

$$$$
>  <compound>
Clc1ccc(-c2cnc3cnc(-c4ccsc4)cn23)cc1

>  <subject.of.test>
Plasmodium berghei

>  <pIC50>
5.61

$$$$
>  <compound>
CCCNC(=O)c1c(NC(=O)c2cccc(F)c2)nc2ccccn12

>  <subject.of.test>
Plasmodium berghei

>  <pIC50>
5.34

$$$$
>  <compound>
NC(Cc1ccccc1)c1csc(NC(=O)NC(c2ccccc2)c2ccccc2)n1 (configuration not stated)

>  <subject.of.test>
Plasmodium berghei

>  <pIC50>
< 5.11

$$$$
>  <compound>
O=S1(=O)CC(S(=O)(=O)c2cccs2)c2ccccc21 (configuration not stated)

>  <subject.of.test>
Plasmodium berghei

>  <pIC50>
< 4.98

$$$$

Lab note: next compound to report on.
What does the record list as pIC50 for CC(C)c1ccc(OCC(=O)Nc2ccccc2C(F)(F)F)cc1 ?
< 5.01

---

system: Plasmodium berghei; experiment: Luciferase/luciferin-expressing antifolate-resistant parasites were used to infect a culture of HepG2 cells that were pre-incubated with compounds. Infected hepatocytes emit light due to the luciferase reaction. Assay results are presented as the percent inhibition of light emission compared to control. […]; type: functional; settings: sporozoite, read-out: LUCIFERASE INFECTION ASSAY - IC90
Listed below: IC90 values for each entry.

>  <compound>
CN(C)c1ccc(/C=C/c2ccc3c4ccccc4ccc3[n+]2-c2ccccc2)cc1

>  <IC90>
1.23 µM

$$$$

What does the record list as IC90 for O=C(NCCCn1ccc2ccccc21)Nc1ccc(Cl)c(Cl)c1 ?
> 10 µM

What does the record list as IC90 for CN(C)c1cccc(CNc2nccc3nc(-c4ccncc4)[nH]c23)c1 ?
> 10 µM

What does the record list as IC90 for Cc1ccccc1-c1cccc(CN2CCC3(CC2)C(=O)N(CCCc2ccncc2)C(=O)N3C)c1 ?
2.53 µM

What does the record list as IC90 for Cc1c(C)n(CCCN(C)C)c2ncn3nc(COc4ccccc4)nc3c12 ?
> 8.72 µM

What does the record list as IC90 for O=C(Nc1nnc[nH]1)C1(c2ccc(F)cc2)CC1 ?
> 10 µM

What does the record list as IC90 for Cc1cc(Nc2nc3ccccc3nc2N2CCN(/C=C/c3ccccc3)CC2)n(-c2ccccc2)n1 ?
> 10 µM

What does the record list as IC90 for Cc1cc(NC(=O)N2CCN(Cc3cccc4ccccc34)CC2)no1 ?
> 10 µM

---

Listed below: IC90 values for each entry.
test system: Plasmodium berghei; experiment: Luciferase/luciferin-expressing antifolate-resistant parasites were used to infect a culture of HepG2 cells that were pre-incubated with compounds. Infected hepatocytes emit light due to the luciferase reaction. Assay results are presented as the percent inhibition of light emission compared to control. […]; type: functional; conditions: sporozoite, read-out: LUCIFERASE INFECTION ASSAY - IC90

Please review the entries below; each comes with its answer.
>  <chemical.string>
NC(=O)c1c(NC(=O)NCc2cccnc2)sc2c1CCC2

>  <readout.type>
IC90

>  <result>
> 10.4 µM

$$$$
>  <chemical.string>
CC(=O)Nc1cccc(-c2cn3c(-c4ccc(Oc5ccccc5)cc4)cnc3cn2)c1

>  <readout.type>
IC90

>  <result>
> 7.85 µM

$$$$
>  <chemical.string>
Cc1c(OCC(=O)Nc2ccccc2)ccc2c1OC(C)(C)C=C2

>  <readout.type>
IC90

>  <result>
0.79 µM

$$$$
>  <chemical.string>
O=S(=O)(c1ccccc1)N1[C@@H]2CC[C@@H](C2)[C@H]1c1nc2c(OCCC3CCCCC3)cccc2[nH]1

>  <readout.type>
IC90

>  <result>
> 10 µM

$$$$
>  <chemical.string>
COC(=O)/C(O)=C/C(=O)c1c(C)[nH]c(C(=O)OC)c1C

>  <readout.type>
IC90

>  <result>
> 10 µM

$$$$

What does the record list as IC90 for C=CCn1c(SCC(=O)c2cc(C)n(-c3ccc(OC)cc3)c2C)nc2sc(-c3ccccc3)cc2c1=O ?
> 10 µM
